Reference source: paper PMC9735679

experimental_system: TetR mutant (Escherichia coli, UniProt P04483, H139W)
Construct: made in house; host or cells: E. coli Rosetta-gami(BL21), vector pET28a
test_method_notes: Surface plasmon resonance affinity, TetR mutant
Format: binding
test_parameters: KD (equilibrium dissociation constant, Kd/Ka), TetR mutant+Mg2+, SPR
# label = 1.0 if Kd < 0.3 nM else 0.0

{"smiles_notation": "CN(C)[C@@H]1C(O)=C(C(N)=O)C(=O)[C@@]2(O)C(O)=C3C(=O)c4c(O)ccc(Cl)c4[C@@H](O)[C@H]3C[C@@H]12", "assigned_category": 1.0}
{"smiles_notation": "CN(C)[C@@H]1C(O)=C(C(N)=O)C(=O)[C@@]2(O)C(O)=C3C(=O)c4c(O)cccc4[C@@](C)(O)[C@H]3[C@H](O)[C@@H]12", "assigned_category": 0.0}
{"smiles_notation": "CN(C)[C@@H]1C(O)=C(C(N)=O)C(=O)[C@@]2(O)C(O)=C3C(=O)c4c(O)ccc(Cl)c4[C@@](C)(O)[C@H]3C[C@@H]12", "assigned_category": 0.0}
{"smiles_notation": "CN(C)[C@@H]1C(O)=C(C(=O)NCNCCCC[C@H](N)C(=O)O)C(=O)[C@@]2(O)C(O)=C3C(=O)c4c(O)cccc4[C@@](C)(O)[C@H]3C[C@@H]12", "assigned_category": 0.0}
{"smiles_notation": "CN(C)c1ccc(O)c2c1C[C@H]1C[C@H]3[C@H](N(C)C)C(O)=C(C(N)=O)C(=O)[C@@]3(O)C(O)=C1C2=O", "assigned_category": 1.0}

Next:
input: Bench note: check whether `C[C@H]1c2cccc(O)c2C(=O)C2=C(O)[C@]3(O)C(=O)C(C(N)=O)=C(O)[C@@H](N(C)C)[C@@H]3[C@@H](O)[C@@H]21` shows Kd below 0.3 nM
output: 0.0

---

experimental_system: natural TetR (Escherichia coli)
Construct: made in house
test_method_notes: Surface plasmon resonance affinity, natural TetR
Type: binding
test_parameters: KD (equilibrium dissociation constant, Kd/Ka), TetR+Mg2+, SPR
Field: pKd. Provide a value for each of the molecules that follow.
Numbers only, as −log10 of the molar value.

The following molecules have reported results that may help.
{"smiles_notation": "CN(C)c1cc(NC(=O)CNC(C)(C)C)c(O)c2c1C[C@H]1C[C@H]3[C@H](N(C)C)C(O)=C(C(N)=O)C(=O)[C@@]3(O)C(O)=C1C2=O", "measured_number": 7.55}
{"smiles_notation": "CN(C)c1ccc(O)c2c1C[C@H]1C[C@H]3[C@H](N(C)C)C(O)=C(C(N)=O)C(=O)[C@@]3(O)C(O)=C1C2=O", "measured_number": 7.15}

Field: next molecule
input: Item: `C[C@H]1c2cccc(O)c2C(=O)C2=C(O)[C@]3(O)C(=O)C(C(N)=O)=C(O)[C@@H](N(C)C)[C@@H]3[C@@H](O)[C@@H]21` Test system: natural TetR (Escherichia coli) Read-out: pKd Value: ?
output: 7.39
